Molecular target: IRAK4 (Homo sapiens (Human))
Sequence (Q9NWZ3 whole entry): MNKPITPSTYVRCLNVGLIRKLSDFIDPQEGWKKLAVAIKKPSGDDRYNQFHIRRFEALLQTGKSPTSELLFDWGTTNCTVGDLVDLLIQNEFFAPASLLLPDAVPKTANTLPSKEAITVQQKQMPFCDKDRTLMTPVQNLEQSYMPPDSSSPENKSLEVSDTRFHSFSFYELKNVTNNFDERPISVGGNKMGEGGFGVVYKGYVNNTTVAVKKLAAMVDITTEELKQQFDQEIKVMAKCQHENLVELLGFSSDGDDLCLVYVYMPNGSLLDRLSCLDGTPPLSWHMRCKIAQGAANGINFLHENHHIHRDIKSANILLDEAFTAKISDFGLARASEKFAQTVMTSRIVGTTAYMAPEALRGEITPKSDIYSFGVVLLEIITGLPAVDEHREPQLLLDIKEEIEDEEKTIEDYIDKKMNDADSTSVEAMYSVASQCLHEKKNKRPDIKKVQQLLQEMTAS
Assay: IRAK4 degradation in OCI-LY10 (DC50)
Format: cell-based
Details: read-out: IRAK4 OCI-LY10 DC50
Measured attribute: DC50
The reply should read as a number followed by its unit.

Reference set (3 entries):
[[record]]
compound = "O=C1CCC(N2C(=O)c3cccc(NCCCOC4CCN(C[C@H]5CC[C@H](n6cc(NC(=O)c7cnn8ccc(N9CCOCC9)nc78)c(C(F)F)n6)CC5)CC4)c3C2=O)C(=O)N1 (stereo partly shown)"
observed_result = "20 nM"

[[record]]
compound = "CN(CCCOCCNc1cccc2c1C(=O)N(C1CCC(=O)NC1=O)C2=O)C[C@H]1CC[C@H](n2cc(NC(=O)c3coc(-c4ccnc(NCC5CC5)c4)n3)c(C(F)F)n2)CC1 (stereo partly shown)"
observed_result = "20 nM"

[[record]]
compound = "CN(C[C@H]1CC[C@H](n2cc(NC(=O)c3coc(-c4ccnc(NCC5CC5)c4)n3)c(C(F)F)n2)CC1)C1CCN(Cc2cccc3c2n(C)c(=O)n3C2CCC(=O)NC2=O)CC1 (stereo partly shown)"
observed_result = "8 nM"


Data request: Need DC50 of Cn1c(=O)n([C@H]2CCC(=O)NC2=O)c2cccc(CCCOC3CCN(CC4CCC(n5cc(NC(=O)c6cnn7ccc(N8CCOCC8)nc67)c(C(F)F)n5)CC4)CC3)c21 (stereo partly shown) , thanks.
Data returned: 5 nM
